- target-or-system: T1, IL23R_huFC (human, UniProt Q5VWK5 24-353)
- T1 sequence (looked up): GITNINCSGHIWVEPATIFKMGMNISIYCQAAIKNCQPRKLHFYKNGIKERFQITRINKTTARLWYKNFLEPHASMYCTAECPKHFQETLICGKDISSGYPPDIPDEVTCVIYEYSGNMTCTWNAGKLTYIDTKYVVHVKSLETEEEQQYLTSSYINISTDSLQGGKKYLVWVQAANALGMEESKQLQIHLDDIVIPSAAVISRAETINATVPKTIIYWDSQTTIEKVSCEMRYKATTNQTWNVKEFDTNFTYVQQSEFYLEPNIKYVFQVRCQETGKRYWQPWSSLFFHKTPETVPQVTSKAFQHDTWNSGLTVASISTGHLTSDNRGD
- experiment-notes: IL23-IL23R competitive ELISA
pIC50: −log10 of the molar value. Bridges are numbered along the chain shown (N, C = ends). [ ]: non-standard residue; d: D form. NMeW = CN[C@@H](Cc1c[nH]c2ccccc12)C(=O)O; 1Nal = N[C@@H](Cc1cccc2ccccc12)C(=O)O
Catalogue of pIC50 values
test-readout: pIC50

[[record]]
binder = "H-CETWECYWHSFS-NH2 (disulfide 1-6 (inferred)) [Hy-CETWECYWHSFS-NH2]"
test_readout = "pIC50"
reported = "< 6.00"

[[record]]
binder = "Ac-CADWVCYWHTKG-OH (disulfide 1-6 (inferred)) [Ac-CADWVCYWHTKG-OH]"
test_readout = "pIC50"
reported = "< 6.00"

[[record]]
binder = "H-CAD[NMeW]VCY[1Nal]HTF-OH (disulfide 1-6 (inferred)) [Hy-CAD-[N-Me-Trp]-VCY-[1-Nal]-HTF-OH]"
test_readout = "pIC50"
reported = "< 6.00"

